# measurement-target: ligand-binding domain (LBD) of LXRβ (Homo sapiens, UniProt P55055, DUP175-175)
# Construct: LXRβ (amino acids 156-461); expressed in transfected cells; host or cells: HEK293
# Sequence (P55055 with tags, fused parts or gaps DUP175-175 limits assumed): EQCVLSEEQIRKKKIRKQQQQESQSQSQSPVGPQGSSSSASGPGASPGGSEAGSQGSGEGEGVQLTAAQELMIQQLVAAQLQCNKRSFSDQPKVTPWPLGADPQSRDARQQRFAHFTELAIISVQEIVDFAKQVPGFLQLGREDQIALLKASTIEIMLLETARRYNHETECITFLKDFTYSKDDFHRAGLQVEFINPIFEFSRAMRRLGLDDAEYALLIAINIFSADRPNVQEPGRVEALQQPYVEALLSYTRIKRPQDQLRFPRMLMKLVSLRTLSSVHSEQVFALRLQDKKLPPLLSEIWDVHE
# experiment-notes: LXR Gal4 reporter transient transfection assay (LBD-M2H Gal4β)
# Assay type: cell-based
# test-context: HEK293 cells; read-out: LBD-M2H Gal4β potency
measure-name: EC50 (nM)
Enter your answer as a number in nM; do not include the unit.

Input: Requested field: EC50. Item: Cc1ccc(S(=O)(=O)n2c(-c3cccc(N4CC(C(=O)O)C4)c3)c(-c3ccsc3C#N)c3cc(F)ccc32)cc1 [3/32]
Output: 13

These entries and their values trace back to patent US11618747B2.
